Assay: Microsomal stability, human
Type: in vitro ADME
Settings: clearance in microsomes
*1 amine or outer side, *2 acyl side, *3 side chain or, on linkers, in order; H or OH if unused. Where a SMILES comes first, the peptide text is derived from it. [ ]: non-standard residue; d: D form. X1 = C#CCn1cc(C[C@H](N[*:1])C(=O)[*:2])c2ccccc21; X4 = C=CCO[C@H](c1ccccc1)[C@H](N[*:1])C(=O)[*:2]; NMeLeu(5-OH,4R) = CN[C@@H](C[C@@H](C)CO)C(=O)O; Phe(βR-OMe) = CO[C@H](c1ccccc1)[C@H](N)C(=O)O; Trp(1-Me) = Cn1cc(C[C@H](N)C(=O)O)c2ccccc21; NMeL = CN[C@@H](CC(C)C)C(=O)O
assay_metric: Microsomal Stability Human

# count of solved cases: 2
C=CCO[C@H](c1ccccc1)[C@@H]1NC(=O)[C@H](C)NC(=O)[C@H](C[C@@H](C)CO)N(C)C(=O)[C@H](Cc2cn(C)c3ccccc23)NC(=O)[C@H](C(C)C)NC(=O)[C@H](CC(C)C)N(C)C(=O)[C@H](C(C)C)NC1=O [Compound 14] (cyclo(A[X4]V[NMeL]V[Trp(1-Me)][NMeLeu(5-OH,4R)])) ... > 88 %Qh
CO[C@H](c1ccccc1)[C@@H]1NC(=O)[C@H](C)NC(=O)[C@H](C[C@@H](C)CO)N(C)C(=O)[C@H](Cc2cn(Cc3cn(CCOCCOCCOCCn4cc(Cn5cc(C[C@@H]6NC(=O)[C@H](C(C)C)NC(=O)[C@H](CC(C)C)N(C)C(=O)[C@H](C(C)C)NC(=O)[C@H]([C@H](OC)c7ccccc7)NC(=O)[C@H](C)NC(=O)[C@H](C[C@@H](C)CO)N(C)C6=O)c6ccccc65)nn4)nn3)c3ccccc23)NC(=O)[C@H](C(C)C)NC(=O)[C@H](CC(C)C)N(C)C(=O)[C@H](C(C)C)NC1=O ... 88 %Qh

Proceed to the following item.
Exercise: // fetch Microsomal Stability Human given entry C#CCn1cc(C[C@@H]2NC(=O)[C@H](C(C)C)NC(=O)[C@H](CC(C)C)N(C)C(=O)[C@H](C(C)C)NC(=O)[C@H]([C@H](OC)c3ccccc3)NC(=O)[C@H](C)NC(=O)[C@H](C[C@@H](C)CO)N(C)C2=O)c2ccccc21 [Compound 5] (cyclo(A[Phe(βR-OMe)]V[NMeL]V[X1][NMeLeu(5-OH,4R)]))
Key: > 88 %Qh

----------
Test system: Msm 700084
Experiment: microbe, parasite or virus in culture
Assay type: cell-based
Conditions: Mycolicibacterium smegmatis, 700084; read-out: MIC Msm 700084
*1 amine or outer side, *2 acyl side, *3 side chain or, on linkers, in order; H or OH if unused. Where a SMILES comes first, the peptide text is derived from it. [ ]: non-standard residue; d: D form. X4 = C=CCO[C@H](c1ccccc1)[C@H](N[*:1])C(=O)[*:2]; NMeLeu(5-OH,4R) = CN[C@@H](C[C@@H](C)CO)C(=O)O; Phe(βR-OMe) = CO[C@H](c1ccccc1)[C@H](N)C(=O)O; Trp(1-Me) = Cn1cc(C[C@H](N)C(=O)O)c2ccccc21; NMeL = CN[C@@H](CC(C)C)C(=O)O; Pra = C#CC[C@H](N)C(=O)O
MIC by entry:
Give the value, in units of µM, as a plain number.

# count of solved cases: 3
CO[C@H](c1ccccc1)[C@@H]1NC(=O)[C@H](C)NC(=O)[C@H](C[C@@H](C)CO)N(C)C(=O)[C@H](Cc2cn(Cc3cn(CCOCCn4cc(Cn5cc(C[C@@H]6NC(=O)[C@H](C(C)C)NC(=O)[C@H](CC(C)C)N(C)C(=O)[C@H](C(C)C)NC(=O)[C@H]([C@H](OC)c7ccccc7)NC(=O)[C@H](C)NC(=O)[C@H](C[C@@H](C)CO)N(C)C6=O)c6ccccc65)nn4)nn3)c3ccccc23)NC(=O)[C@H](C(C)C)NC(=O)[C@H](CC(C)C)N(C)C(=O)[C@H](C(C)C)NC1=O ... 20.8
C=CCO[C@H](c1ccccc1)[C@@H]1NC(=O)[C@H](C)NC(=O)[C@H](C[C@@H](C)CO)N(C)C(=O)[C@H](Cc2cn(C)c3ccccc23)NC(=O)[C@H](C(C)C)NC(=O)[C@H](CC(C)C)N(C)C(=O)[C@H](C(C)C)NC1=O [Compound 14] (cyclo(A[X4]V[NMeL]V[Trp(1-Me)][NMeLeu(5-OH,4R)])) ... 12.5
CO[C@H](c1ccccc1)[C@@H]1NC(=O)[C@H](C)NC(=O)[C@H](C[C@@H](C)CO)N(C)C(=O)[C@H](Cc2cn(C)c3ccccc23)NC(=O)[C@H](Cc2cn(CCOCCOCCn3cc(C[C@@H]4NC(=O)[C@H](CC(C)C)N(C)C(=O)[C@H](C(C)C)NC(=O)[C@H]([C@H](OC)c5ccccc5)NC(=O)[C@H](C)NC(=O)[C@H](C[C@@H](C)CO)N(C)C(=O)[C@H](Cc5cn(C)c6ccccc56)NC4=O)nn3)nn2)NC(=O)[C@H](CC(C)C)N(C)C(=O)[C@H](C(C)C)NC1=O ... 1.6

Proceed to the following item.
Exercise: Would you please give the reported MIC of C#CC[C@@H]1NC(=O)[C@H](CC(C)C)N(C)C(=O)[C@H](C(C)C)NC(=O)[C@H]([C@H](OC)c2ccccc2)NC(=O)[C@H](C)NC(=O)[C@H](C[C@@H](C)CO)N(C)C(=O)[C@H](Cc2cn(C)c3ccccc23)NC1=O [Compound 10] (cyclo(A[Phe(βR-OMe)]V[NMeL][Pra][Trp(1-Me)][NMeLeu(5-OH,4R)])) with Msm 700084?
Key: 25

Ref: paper PMC10914731
